System: B16F10 murine melanoma cells
Experiment: MTT experiment: multiplication of melanoma cells
Assay type: cell-based
Settings: 10.0 mM, 72 h; blank control = 100%
parameter.measured: Multiplication rate of melanoma cell (MTT method, Mean ± SE)

[
  {
    "molecule": "O=c1cc(CO)occ1O",
    "data.value": "43.10 ± 2.31 %"
  }
]

Hey, quick one: what's Multiplication rate of melanoma cell (MTT method, Mean ± SE) for each of these?
1. O=C1O[C@H]([C@@H](O)CO)C(OC2O[C@H](CO)[C@@H](O[C@@H]3O[C@H](CO)[C@H](O)[C@H](O)[C@H]3O)[C@H](O)[C@H]2O)=C1O (stereo partly shown)
2. OC[C@H]1O[C@@H](Oc2ccc(O)cc2)[C@H](O)[C@@H](O)[C@@H]1O
3. O=C1O[C@H]([C@@H](O)CO)C(O)=C1O[C@H]1O[C@H](CO)[C@@H](O)[C@H](O)[C@H]1O

Given back:
["76.56 ± 7.67%", "76.94 ± 6.08%", "43.21 ± 7.40 %"]
